Data origin: ChEMBL document CHEMBL1156074

Tested on: Bacillus subtilis
experiment.summary: Bactericidal activity against Bacillus subtilis ATCC 6633 after overnight incubation
Type: functional
quantity.name: MBC

| molecule | MBC |
| --- | --- |
| COC(=O)[C@@H]1NC(=O)[C@H]2NC(=O)[C@H](NC(=O)[C@@H]3NC(=O)[C@H]4NC(=O)[C@@H](Cc5ccc(c(Cl)c5)Oc5cc3cc(c5O)Oc3ccc(cc3Cl)[C@H]2O)NC(=O)[C@H](N=[N+]=[N-])c2ccc(O)c(c2)Oc2cc(O)cc4c2)c2ccc(O)c(c2)-c2c(O)cc(O)cc21 | 4 µg/mL |

Exam item: What MBC value was documented for this molecule, CN[C@H](CC(C)C)C(=O)N[C@H]1C(=O)N[C@@H](CC(N)=O)C(=O)N[C@H]2C(=O)N[C@H]3C(=O)N[C@H](C(=O)N[C@H](C(=O)O)c4cc(O)cc(O)c4-c4cc3ccc4O)[C@H](O)c3ccc(c(Cl)c3)Oc3cc2cc(c3O[C@@H]2O[C@H](CO)[C@@H](O)[C@H](O)[C@H]2O[C@H]2C[C@](C)(N)[C@H](O)[C@H](C)O2)Oc2ccc(cc2Cl)[C@H]1O [VANCOMYCIN] ?
Marked response: 4 µg/mL
